Field: protein stability index. Provide a value for each of the variants that follow.
B1: TOR1AIP2 (parent)
chain: HHVADAYTSSQKVSPIQIDGAGRT

Variants of: B1
EXPERIMENTAL DETAILS: protein stability index of a GFP-peptide fusion (GPS, HEK-293T) (PSI 1-6); higher = more stable;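 also: lentivirally expressed fusions sorted by FACS into six bins by GFP to DsRed ratio, PSI derived from sequencing read proportions per bin multiplied by bin number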
TEST PARAMETERS: c terminus: a fixed tail appended
Give bare numbers.

Some entries whose results are on file:
Input line: If you can, please state the reported protein stability index value of "K12I" .
Output line: 3.13

Input line: If you can, please state the reported protein stability index value of "Y7I" .
Output line: 4.75

Input line: If you can, please state the reported protein stability index value of "A21C" .
Output line: 3.48

Provide protein stability index values for the following items, in order.
1. R23W
2. A21E
3. P15Y

Output line:
1: 3.1; 2: 3.32; 3: 2.55
